# credit: patent US7067503B2

- Test system: STS (Homo sapiens)
- Sequence (P08842 22-583): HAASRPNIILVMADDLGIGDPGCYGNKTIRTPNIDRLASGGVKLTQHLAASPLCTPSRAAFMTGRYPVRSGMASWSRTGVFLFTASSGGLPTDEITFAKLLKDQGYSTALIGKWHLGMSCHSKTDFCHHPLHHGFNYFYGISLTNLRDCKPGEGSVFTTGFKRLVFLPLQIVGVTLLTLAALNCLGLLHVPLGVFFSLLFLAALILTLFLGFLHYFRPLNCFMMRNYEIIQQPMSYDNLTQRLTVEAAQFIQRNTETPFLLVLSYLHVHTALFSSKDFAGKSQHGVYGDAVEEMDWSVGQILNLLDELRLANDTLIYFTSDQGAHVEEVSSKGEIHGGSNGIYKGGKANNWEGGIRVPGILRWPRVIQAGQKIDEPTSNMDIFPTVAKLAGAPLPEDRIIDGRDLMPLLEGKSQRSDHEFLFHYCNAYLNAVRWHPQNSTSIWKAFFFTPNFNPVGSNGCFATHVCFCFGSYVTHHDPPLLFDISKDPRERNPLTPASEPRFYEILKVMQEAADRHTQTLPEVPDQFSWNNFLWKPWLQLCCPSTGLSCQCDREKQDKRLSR
- Run description: Plate assay, % inhibition
- Condition: 10 μM; -ve % means stimulation
Assign rule met whenever Plate assay % inhibition does not fall below 20%; assign rule not met whenever it does.

[
  {
    "Compound": "C[C@]12CCC3c4ccc(O)cc4CCC3C1CC[C@H]2OS(=O)(=O)N(Cc1ccccc1)Cc1ccccc1 (stereo partly drawn) [BLE99066]",
    "Classification": "rule met"
  },
  {
    "Compound": "CC(=O)NS(=O)(=O)O[C@H]1CCC2C3CCc4cc(OS(N)(=O)=O)ccc4C3CC[C@@]21C (stereo partly drawn) [BLE99065]",
    "Classification": "rule met"
  },
  {
    "Compound": "C[C@]12CC[C@@H]3c4ccc(OS(N)(=O)=O)cc4CC[C@H]3[C@@H]1CC[C@@H]2O [BLE00084]",
    "Classification": "rule met"
  },
  {
    "Compound": "COc1cc2c(cc1OS(N)(=O)=O)CC[C@@H]1[C@@H]2CC[C@]2(C)C(=O)CC[C@@H]12 [Compound 2-MOEMATE, 2-methoxyoestrone-3-O-sulphamate, reference compound]",
    "Classification": "rule met"
  },
  {
    "Compound": "C[C@]12CCC3c4ccc(OS(N)(=O)=O)cc4CCC3C1CC[C@H]2OS(=O)(=O)N(Cc1ccccc1)Cc1ccccc1 (stereo partly drawn) [BLE99068]",
    "Classification": "rule not met"
  },
  {
    "Compound": "CN(C)S(=O)(=O)O[C@H]1CCC2C3CCc4cc(O)ccc4C3CC[C@@]21C (stereo partly drawn) [BLE99067]",
    "Classification": "rule met"
  }
]
